- Test system: solgum
- assayComment: Soil treatment test for upland field
- Type: in vivo
- Design: key: 0: normal development; 1: Less damaged; 2: Slightly damaged; 3: Moderately damaged; 4: Severely damaged; 5: All killed
- measurementParameters: 500 g/ha, glass house 25° C., 3 weeks
// label = label 1 if Effects Solgum is not less than 1, otherwise label 0

1) CCC(Oc1cccc(C(F)(F)F)c1)c1nc2cc(Br)ccc2o1 (centres unmarked)    label 0
2) CCC(Oc1cccc(C(F)(F)F)c1)c1nc2cc(C#N)ccc2o1 (centres unmarked)    label 1
3) CCC(Oc1cccc(C(F)(F)F)c1)c1nc2cc(F)c(C(F)(F)F)cc2o1 (centres unmarked)    label 1
4) CCC(Oc1cccc(OC(F)(F)F)c1)c1nc2cc([N+](=O)[O-])ccc2o1 (centres unmarked)    label 1
5) CCC(Oc1ccc(Cl)c(C(F)(F)F)c1)c1nc2cc([N+](=O)[O-])ccc2o1 (centres unmarked)    label 1
6) CCCC(Oc1cccc(C(F)(F)F)c1)c1nc2cc(C#N)ccc2o1 (centres unmarked)    label 1
7) CCC(Oc1ccc(F)c(C(F)(F)F)c1)c1nc2cc(C(F)(F)F)ccc2o1 (centres unmarked)    label 1
8) CCCC(Oc1ccc(F)c(C(F)(F)F)c1)c1nc2cc(S(C)(=O)=O)c(C)cc2o1 (centres unmarked)    label 0
9) CCCC(Oc1ccc(F)c(C(F)(F)F)c1)c1nc2cc(C#N)c(C#N)cc2o1 (centres unmarked)    label 0
10) CCC(Oc1cccc(C#N)c1)c1nc2cc(C#N)ccc2o1 (centres unmarked)    label 1
11) CCC(Oc1cccc(C#N)c1)c1nc2cc(S(C)(=O)=O)ccc2o1 (centres unmarked)    label 0
12) CCC(Oc1ccc(F)c(C(F)(F)F)c1)c1nc2cc(Cl)ccc2o1 (centres unmarked)    label 1
13) CCC(Oc1cccc(C(F)(F)F)c1)c1nc2cc([N+](=O)[O-])ccc2o1 (centres unmarked)    label 0
14) CCC(Oc1cccc(S(C)(=O)=O)c1)c1nc2cc(S(C)(=O)=O)ccc2o1 (centres unmarked)    label 1
15) CCCC(Oc1ccc(F)c(C(F)(F)F)c1)c1nc2cc(S(C)(=O)=O)ccc2o1 (centres unmarked)    label 0
16) CC(Oc1cccc(C(F)(F)F)c1)c1nc2cc(Cl)ccc2o1 (centres unmarked)    label 0

====

- System: livid amaranth
- assayComment: Foliar spread test for upland field
- Assay type: in vivo, Amaranthus lividus
- Set-up: key: 0: normal development; 1: Less damaged; 2: Slightly damaged; 3: Moderately damaged; 4: Severely damaged; 5: All killed
- measurementParameters: foliar spray 500 ppm, 3 weeks, rank vs non-treated
recordedEndpoint: Effects Livid amaranth

1. CCC(Oc1ccc(Cl)c(C(F)(F)F)c1)c1nc2cc(F)ccc2o1 (stereo not drawn)    3
2. CCC(Oc1cccc(C(F)(F)F)c1)c1nc2cc(F)ccc2o1 (stereo not drawn)    5
3. CCC(Oc1cccc(OC(F)(F)F)c1)c1nc2cc(Cl)ccc2o1 (stereo not drawn)    5

====

- System: bulrush
- assayComment: Herbicidal test for paddy field
- Format: in vivo, Scrips juncoides
- Parameters: key: 0: normal development; 1: Less damaged; 2: Slightly damaged; 3: Moderately damaged; 4: Severely damaged; 5: All killed
- measurementParameters: paddy field pot, 500 g/ha dropwise at 1.5 leaf stage of barnyardgrass, 3 weeks, rank vs non-treated
Below: a set of entries, each annotated with reported Effect Bulrush.
recordedEndpoint: Effect Bulrush

1) CCC(Oc1cccc(OC(F)(F)F)c1)c1nc2cc(C#N)ccc2o1 (stereo not drawn)    5
2) CCCC(Oc1ccc(F)c(C(F)(F)F)c1)c1nc2cc(F)c(F)cc2o1 (stereo not drawn)    5
3) CCC(Oc1ccc(F)c(C(F)(F)F)c1)c1nc2cc(Cl)ccc2o1 (stereo not drawn)    5
4) CCCC(Oc1cccc(C(F)(F)F)c1)c1nc2cc(C#N)c(C#N)cc2o1 (stereo not drawn)    3
5) CCCC(Oc1ccc(F)c(C(F)(F)F)c1)c1nc2cc(S(C)(=O)=O)ccc2o1 (stereo not drawn)    2
6) CCC(Oc1ccc(F)c(C(F)(F)F)c1)c1nc2cc(C#N)ccc2o1 (stereo not drawn)    5
